Test system: primary human hepatocytes (PHHs)
Method Description: IRES screening (Table 28), Gaussia luciferase LNP-oRNA in primary human hepatocytes (PHHs)
Details: protein expression relative to positive control (SEQ ID NO 3282 = 1)

[
  {
    "Compound": "CCCCCCCCC(CCCCCC)C(=O)OCCCCCCN(CCCCCCOC(=O)C(CCCCCC)CCCCCCCC)C(CC)CO (stereo not shown) [Lipid 31]",
    "PHH AVG [Fold Change] (Fold Change)": 0.6943
  },
  {
    "Compound": "CCCCCCCCC(CCCCCC)C(=O)OCCCCCCCCCCCCN(CCCO)CCCCCCCCCCCCOC(=O)C(CCCCCC)CCCCCCCC (stereo not shown) [Lipid 38]",
    "PHH AVG [Fold Change] (Fold Change)": 0.2209
  },
  {
    "Compound": "CCCCCCC(CCCC)C(=O)OCCCCCCN(CCO)CCCCCCOC(=O)C(CCCC)CCCCCC (stereo not shown) [Lipid 29]",
    "PHH AVG [Fold Change] (Fold Change)": 0.008274
  },
  {
    "Compound": "CCCCCCCCC(CCCCCC)COC(=O)CCCCCCCN(CCO)CCCCCCCC(=O)OCC(CCCCCC)CCCCCCCC (stereo not shown) [Lipid 46]",
    "PHH AVG [Fold Change] (Fold Change)": 0.503
  }
]

====

Reported PHH AVG [Fold Change] by item:
Test system: primary human hepatocytes (PHHs)
Method Description: IRES screening (Table 28), Gaussia luciferase LNP-oRNA in primary human hepatocytes (PHHs)
Details: protein expression relative to positive control (SEQ ID NO 3282 = 1)

[
  {
    "Compound": "CCCCCCCCC(CCCCCC)C(=O)OCCCCCCN(CCCCCCOC(=O)C(CCCCCC)CCCCCCCC)CCCC(=O)OCC (stereo not shown) [Lipid 34]",
    "Target Of Assay": "primary human hepatocytes (PHHs)",
    "PHH AVG [Fold Change] [Fold Change]": 0.4644
  },
  {
    "Compound": "CCCCCCC(CCCC)C(=O)OCCCCCCCCCN(CCCCO)CCCCCCCCCOC(=O)C(CCCC)CCCCCC (stereo not shown)",
    "Target Of Assay": "primary human hepatocytes (PHHs)",
    "PHH AVG [Fold Change] [Fold Change]": 0.1559
  },
  {
    "Compound": "CCCCCCC(CCCC)C(=O)OCCCCCCN(CCCCO)CCCCCCOC(=O)C(CCCC)CCCCCC (stereo not shown)",
    "Target Of Assay": "primary human hepatocytes (PHHs)",
    "PHH AVG [Fold Change] [Fold Change]": 0.3425
  },
  {
    "Compound": "CCCCCCCCCCCCC(CCCCCCCCCC)C(=O)OCCCCCCN(CCCCO)CCCCCCOC(=O)C(CCCCCCCCCC)CCCCCCCCCCCC (stereo not shown)",
    "Target Of Assay": "primary human hepatocytes (PHHs)",
    "PHH AVG [Fold Change] [Fold Change]": 0.09892
  },
  {
    "Compound": "CCCCCCCCC(CCCCCC)C(=O)OCCCCCCN(CCCCCCOC(=O)C(CCCCCC)CCCCCCCC)CCCOC (stereo not shown)",
    "Target Of Assay": "primary human hepatocytes (PHHs)",
    "PHH AVG [Fold Change] [Fold Change]": 0.01033
  },
  {
    "Compound": "CCCCCCCCC(CCCCCC)C(=O)OCCCCCCCCCN(CCCCO)CCCCCCCCCOC(=O)C(CCCCCC)CCCCCCCC (stereo not shown)",
    "Target Of Assay": "primary human hepatocytes (PHHs)",
    "PHH AVG [Fold Change] [Fold Change]": 0.0926
  },
  {
    "Compound": "CCCCCCCCC(CCCCCC)C(=O)OCCCCCCCCCCCCN(CCCCO)CCCCCCCCCCCCOC(=O)C(CCCCCC)CCCCCCCC (stereo not shown)",
    "Target Of Assay": "primary human hepatocytes (PHHs)",
    "PHH AVG [Fold Change] [Fold Change]": 0.0008387
  }
]

// provenance: patent US20250283073A1
